target of assay: Retinoic acid receptor RXR-alpha (Homo sapiens)
experiment description: ATG_RXRa_TRANS: Attagene TRANS-FACTORIAL HepG2 Assay for human Retinoid X Receptor alpha (RXRa) (AID 2283012)
Results filed as inconclusive are left out. The source made the active and inactive calls. How the source made its calls: active means hit-call score of the fitted dose curve at least 0.9, where 1 is the maximum; inconclusive means response in the unintended direction; inactive means score below 0.9.
Pick one and only one: y for active, n for inactive

Answered examples (5):
| compound | target of assay | group label |
| --- | --- | --- |
| C=CC(C)(C)C | Retinoic acid receptor RXR-alpha (Homo sapiens) | n |
| CC(C)C1=CC2=CC[C@@H]3[C@](C)(CCC[C@@]3(C)C(=O)O)[C@H]2CC1 | Retinoic acid receptor RXR-alpha (Homo sapiens) | n |
| C=CC(=O)OCCOC(=O)C=C | Retinoic acid receptor RXR-alpha (Homo sapiens) | n |
| CCCCCCCCCCOS(=O)(=O)O | Retinoic acid receptor RXR-alpha (Homo sapiens) | n |
| CC(C)(Oc1ccc(C2CC2(Cl)Cl)cc1)C(=O)O (configuration not stated) | Retinoic acid receptor RXR-alpha (Homo sapiens) | n |

Input line: Could you please tell me the result logged for "CC(C)c1ccc(C#N)cc1" in this assay?
Output line: n

Input line: In this assay, the call recorded for "COc1cc(NC(=O)CC(C)=O)c(OC)cc1Cl" was what?
Output line: n

Input line: I'd appreciate the recorded outcome for "CCc1ccc2c(c1)C(=O)c1ccccc1C2=O" from this test.
Output line: n

Input line: Call for entry "O=C1CCCC1" :
Output line: n

Input line: So what was the verdict on "CC/C=C\CCOC(=O)CCCCC" in this test?
Output line: n

====

experiment description: ATG_M_61_CIS: Attagene CIS-FACTORIAL HepG2 Assay for M61 Transcription Factor (Internal Marker) (AID 2282937)
assay conditions: HepG2 Attagene CIS-FACTORIAL M61 internal marker reporter; actives raise or lower the signal
Active and inactive are the calls of the source. The calls were made as follows: active = hit-call score of the fitted dose curve at least 0.9, where 1 is the maximum; inactive = score below 0.9.
API: response.call in Yes = active, No = inactive

| molecule | group label |
| --- | --- |
| O=C1CCCCCCCCCCC(=O)OCCO1 | No |
| CCCCC(CC)COCC1CO1 (stereo unspecified) | No |
| CO[Si](OC)(OC)c1ccccc1 | No |
| CC(=O)C=CC1C(C)=CCC(C)C1(C)C (stereo unspecified) | No |
| CC(C)(C)C(=O)C=Cc1ccc(Cl)cc1 | Yes |
| c1c[nH]cn1 | No |
| O=C(c1ccccc1)C1CCC1 | No |
| COC=O | No |
| CC(C)c1ccc(C=O)cc1 | No |
| FC(F)=C(F)OC(F)(F)C(F)(F)C(F)(F)F | No |

Input line: Hi, do you know how CCCC(C)CCC(C)=O (stereo unspecified) came out in this test?
Output line: No

Input line: Field: outcome | Entry: "C=C(C)C(=O)OCCOc1ccccc1"
Output line: No

Input line: Please let me know the test result on file for "CC(C)(C)c1ccc(N)cc1" .
Output line: No

====

experiment description: ATG_AP_2_CIS: Attagene CIS-FACTORIAL HepG2 Assay for human Activator Protein 2 (AP-2) (AID 2282932)
assay conditions: HepG2 AP-2 cis-reporter, Attagene transcription factor profiling; actives raise or lower the signal
Description: ATG_CIS is a cell-based, multiplexed-readout assay that uses HepG2, a human liver cell line, with measurements taken at 24 hours after chemical dosing in a 24-well plate.ATG_AP_2_CIS is one of 52 assay component(s) measured or calculated from the ATG_CIS assay. […] This assay endpoint, ATG_AP_2_CIS, was analyzed with bidirectional fitting relative to DMSO as the negative control and baseline of activity. […]
Activity calls are given as the source filed them. Rule for the calls: active = hit-call score of the fitted dose curve at least 0.9, where 1 is the maximum; inactive = score below 0.9.

| molecule | outcome |
| --- | --- |
| CCOC(=O)N1CCC(=C2c3ccc(Cl)cc3CCc3cccnc32)CC1 | inactive |
| C(=CC=Nc1ccccc1)C=CNc1ccccc1 | inactive |
| C=C1C2CCC(C2)C1(C)C (stereo not drawn) | inactive |

====

experiment description: ATG_NF_kB_CIS: Attagene CIS-FACTORIAL HepG2 Assay for human Nuclear Factor Kappa B (NF-kB) (AID 2282991)
assay conditions: HepG2 Attagene cis-factorial NF-kB reporter mRNA; actives raise or lower the signal
Activity calls are given as the source filed them. Rule for the calls: active = hit-call score of the fitted dose curve at least 0.9, where 1 is the maximum; inactive = score below 0.9.
Answer with one of the outcomes yes (1) (active), no (0) (inactive)

Input line: Could you check what this test reported for "CC(C)C1=CC2=CC[C@@H]3[C@](C)(CCC[C@@]3(C)C(=O)O)[C@H]2CC1" ?
Output line: yes (1)

====

experiment description: BSK_BE3C_SRB: Viability Assessment in the BioMAP Diversity Plus: BE3C Assay (AID 2283028)
assay conditions: primary human bronchial epithelial cells
The source made the active and inactive calls. How the source made its calls: active means hit-call score of the fitted dose curve at least 0.9, where 1 is the maximum; inactive means score below 0.9.
Assign a class; possible classes are y for active, n for inactive

Input line: Give the logged outcome of this assay for the following molecule: "CCO[Si](C)(OCC)OCC"
Output line: n

Input line: Given C#CC1(O)CC[C@H]2[C@@H]3CCC4=CCCC[C@@H]4[C@H]3CC[C@@]21C (stereo partly specified) , state the outcome it received in this test.
Output line: y

Input line: Fill in: this test's call for "O=C1CCCN1CCO" is ___
Output line: n

Input line: What was the test verdict on "CC(C)C(=O)C(C)C" ?
Output line: n

Input line: How did this test come out for "O=c1c2ccccc2oc2ccccc12" ?
Output line: n

====

target of assay: Cellular tumor antigen p53 (Homo sapiens)
experiment description: TOX21_p53_BLA_p4_ratio: Tox21 HCT-116 p53 Agonism Beta-lactamase Assay, Ratio, Phase 4 (AID 2283601)
Records with an inconclusive call do not appear. Active and inactive are the calls of the source. Rule for the calls: active = hit-call score of the fitted dose curve at least 0.9, where 1 is the maximum; inconclusive = response in the unintended direction; inactive = score below 0.9.
Please answer using one outcome listed in 1.0 = active, 0.0 = inactive

These solved cases illustrate the format of a correct answer.
| compound | group label |
| --- | --- |
| CCCCCCCCCCCCCOP(=O)(O)O | 0.0 |
| CC(C)(Oc1ccc(C2CC2(Cl)Cl)cc1)C(=O)O (configuration not stated) | 0.0 |
| CC1=Nc2ccc3ccccc3c2C1(C)C | 0.0 |
| COc1cc(NC(=O)CC(C)=O)c(OC)cc1Cl | 0.0 |
| CCCOCCOCCOCCO | 0.0 |
| O=Cc1ccc(CO)o1 | 0.0 |

Input line: Hi team, can someone confirm the assay call for "O=c1n(CCO)c(=O)n(CCO)c(=O)n1CCO" ?
Output line: 0.0

Input line: Outcome logged for "O=c1[nH]nc(-c2ccc([N+](=O)[O-])o2)o1" in this assay:
Output line: 0.0

Input line: Tell me the recorded outcome of this test for N[C@H]1C(O)O[C@H](CO)[C@H](O)[C@@H]1O (some centres not stated) .
Output line: 0.0

Input line: Tell me the recorded outcome of this test for "C[Si](C)(CCCN)O[Si](C)(C)CCCN" .
Output line: 0.0

Input line: # outcome recorded in this test, key = "CN(C)c1ccc(N=Nc2ccccc2C(=O)O)cc1"
Output line: 0.0

Input line: I'd appreciate the recorded outcome for "O=S(=O)(O)c1ccccc1C=Cc1ccc(-c2ccc(C=Cc3ccccc3S(=O)(=O)O)cc2)cc1" from this test.
Output line: 1.0

====

experiment description: BSK_4H_Eotaxin3: BioMAP Diversity Plus: 4H Assay for Eotaxin 3 Biomarker Activity (AID 2283000);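 on outcome: CCL26 protein level quantified by ELISA in parallel with SRB cytotoxicity check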
assay conditions: primary human endothelial cells (HUVEC); actives raise or lower the signal
Activity calls are given as the source filed them. Rule for the calls: active = hit-call score of the fitted dose curve at least 0.9, where 1 is the maximum; inactive = score below 0.9.
Tick one outcome: 1 (yes) (active), 0 (no) (inactive)

Here are 6 compounds together with their reported answers.
| compound | group label |
| --- | --- |
| CCCCCCCCc1ccc(Nc2ccc(CCCCCCCC)cc2)cc1 | 0 (no) |
| N#[N+]c1ccc2c(S(=O)(=O)[O-])cccc2c1O | 0 (no) |
| CCCCC/C=C\C/C=C\CCCCCCCC(=O)OC | 1 (yes) |
| COCc1c(C(C)C)nc(C(C)C)c(/C=C/[C@@H](O)C[C@@H](O)CC(=O)O)c1-c1ccc(F)cc1 | 1 (yes) |
| C=CCOc1c(Br)cc(Br)cc1Br | 1 (yes) |
| O=C(Cl)c1cc(C(=O)Cl)cc(C(=O)Cl)c1 | 1 (yes) |

Input line: Entry "CCO[Si](CCCN=C=O)(OCC)OCC" : call = ?
Output line: 0 (no)

Input line: Outcome? CN1C(=O)N(C)C(O)C1O (stereo not drawn)
Output line: 0 (no)

====

experiment description: ATG_Oct_MLP_CIS: Attagene CIS-FACTORIAL HepG2 Assay for human Octamer-Binding Transcription Factor (Oct) (AID 2282993)
assay conditions: HepG2 Attagene cis-factorial Oct reporter, mRNA; actives raise or lower the signal
The source made the active and inactive calls. The calls were made as follows: active = hit-call score of the fitted dose curve at least 0.9, where 1 is the maximum; inactive = score below 0.9.
Form entry, call: pick from 1 for active, 0 for inactive

Example entries and their recorded answers appear below.
| compound | group label |
| --- | --- |
| CCOC(=O)Cc1cccc2ccccc12 | 0 |
| c1cc(C(c2ccc(OCC3CO3)cc2)C(c2ccc(OCC3CO3)cc2)c2ccc(OCC3CO3)cc2)ccc1OCC1CO1 (stereo not given) | 1 |
| O=Cc1ccc(CO)o1 | 0 |
| CC(=O)Nc1ccc2c(c1)Cc1cc(NC(C)=O)ccc1-2 | 0 |
| O=P(O)(O)Oc1ccccc1 | 0 |

Input line: Short answer needed: outcome of this test for "O=C1CCCCCCCCCCC(=O)OCCO1" ?
Output line: 0

Input line: Could you check what this test reported for "CCCC(=O)OCc1ccccc1" ?
Output line: 0

Input line: // outcome(item) with item = "C/C=C\C/C=C/CCCCCCCCOC(C)=O"
Output line: 1

Input line: Field: outcome | Entry: C=CC(=O)OCCOC1C2CCC1C1CC=CC12 (stereo not given)
Output line: 0

Input line: Any idea what this test logged for CC(C)(C)C1CCCCC1=O (stereo not given) ?
Output line: 0

Input line: Query: recorded result category for "CCCCCCCCCCCCCCCC(=O)OCC" in this test
Output line: 0

Input line: Which outcome was entered for the compound "OC1CCCC1" in this test?
Output line: 0

Input line: What call does the record list for "Clc1nc2ccccc2s1" ?
Output line: 0

Input line: # lookup: test call for "Cc1cc(C)c(C)cc1C"
Output line: 0
